- measured-target: human recombinant HDAC6 (Homo sapiens, UniProt Q9UBN7)
- Sequence (Q9UBN7 whole entry): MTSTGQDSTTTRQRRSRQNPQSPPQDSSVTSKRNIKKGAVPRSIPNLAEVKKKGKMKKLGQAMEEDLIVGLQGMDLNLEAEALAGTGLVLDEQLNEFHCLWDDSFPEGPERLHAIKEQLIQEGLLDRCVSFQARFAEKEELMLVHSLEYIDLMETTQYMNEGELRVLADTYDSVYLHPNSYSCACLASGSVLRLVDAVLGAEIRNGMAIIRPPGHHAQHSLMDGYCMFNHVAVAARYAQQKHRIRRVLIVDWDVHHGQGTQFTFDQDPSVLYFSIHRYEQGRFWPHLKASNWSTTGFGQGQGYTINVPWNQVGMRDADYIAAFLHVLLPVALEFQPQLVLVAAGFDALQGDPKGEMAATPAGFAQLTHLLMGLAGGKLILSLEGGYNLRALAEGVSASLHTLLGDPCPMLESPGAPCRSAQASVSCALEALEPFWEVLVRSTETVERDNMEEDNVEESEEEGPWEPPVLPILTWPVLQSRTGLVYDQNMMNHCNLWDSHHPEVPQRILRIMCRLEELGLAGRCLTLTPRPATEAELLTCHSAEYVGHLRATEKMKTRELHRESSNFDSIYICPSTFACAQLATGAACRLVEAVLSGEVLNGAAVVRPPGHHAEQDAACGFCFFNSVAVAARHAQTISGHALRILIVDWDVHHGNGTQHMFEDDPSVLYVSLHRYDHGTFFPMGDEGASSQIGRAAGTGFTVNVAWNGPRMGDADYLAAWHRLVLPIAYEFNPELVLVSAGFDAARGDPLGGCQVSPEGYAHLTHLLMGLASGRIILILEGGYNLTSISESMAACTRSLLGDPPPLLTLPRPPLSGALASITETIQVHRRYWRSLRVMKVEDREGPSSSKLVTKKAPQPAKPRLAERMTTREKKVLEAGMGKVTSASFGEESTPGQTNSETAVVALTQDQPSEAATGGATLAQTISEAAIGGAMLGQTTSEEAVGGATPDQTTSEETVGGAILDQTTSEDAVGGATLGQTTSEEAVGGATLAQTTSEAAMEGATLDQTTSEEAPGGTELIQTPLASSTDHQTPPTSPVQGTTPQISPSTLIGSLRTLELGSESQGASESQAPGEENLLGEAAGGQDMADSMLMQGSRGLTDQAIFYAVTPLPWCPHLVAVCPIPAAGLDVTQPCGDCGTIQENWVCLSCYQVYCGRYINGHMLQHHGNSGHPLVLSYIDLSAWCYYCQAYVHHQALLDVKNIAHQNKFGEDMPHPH
- test: HDAC6 enzyme activity inhibition assay (HDAC Fluorimetric Drug Discovery Kit)
- experimental-parameters: 30° C. 60 minutes
pIC50: −log10 of the molar value.
endpoint: pIC50

The cases that follow already have their pIC50 on record.
// returns reported pIC50 for input COc1cccc(C2(Nc3ncc(-c4nnc(C(F)(F)F)o4)cn3)CCC2)c1
6.77

// returns reported pIC50 for input Fc1ccc(C2(Nc3ncc(-c4nnc(C(F)F)o4)cn3)CCC2)cc1Cl
7.11

(1) Fc1cc(F)c(C2(Nc3ncc(-c4nnc(C(F)F)o4)cn3)CCC2)cc1F
(2) Cc1cccc(C2(Nc3ncc(-c4nnc(C(F)F)o4)cn3)CCC2)c1
Lab notebook, comparison: 1 versus 2 , higher pIC50 goes to which? // output: label of the selected item
2
